- Tested on: Platelet-derived growth factor receptor alpha (Homo sapiens), P16234 [D842V]
- Sequence (P16234 whole entry D842V): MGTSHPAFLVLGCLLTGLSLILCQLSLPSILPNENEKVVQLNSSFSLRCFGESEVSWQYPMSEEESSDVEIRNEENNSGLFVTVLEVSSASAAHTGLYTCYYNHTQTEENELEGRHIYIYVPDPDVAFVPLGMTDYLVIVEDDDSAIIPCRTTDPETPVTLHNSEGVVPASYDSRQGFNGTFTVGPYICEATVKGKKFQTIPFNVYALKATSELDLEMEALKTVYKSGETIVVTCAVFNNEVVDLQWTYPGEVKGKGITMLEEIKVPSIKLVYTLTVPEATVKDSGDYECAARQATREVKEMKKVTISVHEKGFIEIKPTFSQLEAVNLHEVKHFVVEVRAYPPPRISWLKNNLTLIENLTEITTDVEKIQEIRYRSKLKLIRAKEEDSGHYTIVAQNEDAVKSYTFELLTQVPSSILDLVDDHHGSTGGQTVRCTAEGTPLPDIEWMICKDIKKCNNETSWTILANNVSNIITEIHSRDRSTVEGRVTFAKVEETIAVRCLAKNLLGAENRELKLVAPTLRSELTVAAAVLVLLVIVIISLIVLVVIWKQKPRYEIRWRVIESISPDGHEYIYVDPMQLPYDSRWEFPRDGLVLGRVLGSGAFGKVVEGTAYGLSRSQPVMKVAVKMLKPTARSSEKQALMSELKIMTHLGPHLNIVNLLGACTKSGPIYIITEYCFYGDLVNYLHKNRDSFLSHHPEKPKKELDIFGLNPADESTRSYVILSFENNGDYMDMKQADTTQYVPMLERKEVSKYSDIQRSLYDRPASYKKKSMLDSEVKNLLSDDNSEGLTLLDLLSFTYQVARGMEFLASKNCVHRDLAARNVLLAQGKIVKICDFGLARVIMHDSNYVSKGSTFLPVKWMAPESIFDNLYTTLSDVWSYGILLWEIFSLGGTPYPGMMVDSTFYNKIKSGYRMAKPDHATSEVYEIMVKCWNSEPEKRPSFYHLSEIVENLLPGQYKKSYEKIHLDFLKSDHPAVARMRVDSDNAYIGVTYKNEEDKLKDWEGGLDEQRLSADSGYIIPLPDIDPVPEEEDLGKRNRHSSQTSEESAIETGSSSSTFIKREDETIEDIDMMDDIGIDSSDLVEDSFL
- MEASUREMENT CONDITIONS: at 1 µM
READOUT LABEL: inhibition (%)
Answers are plain numbers, in %.

{"columns": ["COMPOUND", "inhibition / %"],
 "data": [
  ["COc1cc2ncn(-c3cc(O[C@H](C)c4ccccc4Cl)c(C(N)=O)s3)c2cc1OC", 88.2],
  ["Cc1cc(O)cc(C)c1/C=C/c1cncc(-c2nn[nH]n2)c1", 22.2],
  ["CCN1CCC(CC(=O)Nc2n[nH]c3nc(-c4cccs4)c(Br)cc23)CC1", 6.22],
  ["CCn1c(-c2nonc2N)nc2cnc(Oc3cccc(NC(=O)c4ccc(OCCN5CCOCC5)cc4)c3)cc21", 4.64],
  ["Fc1cccc(COc2ccc(Nc3ncnc4sc(-c5cccs5)cc34)cc2Cl)c1", 2.11]
]}

For the 6 compounds below, give their inhibition values.
1. Cc1ccc(C(=O)NC2CCCCC2)cc1-c1ccc(C(=O)NCC2CC2)cc1
2. [O-][S+]1CCN(Cc2ccc(-c3ccc4ncnc(Nc5ccc(OCc6ccccc6)c(F)c5)c4c3)o2)CC1
3. Nc1ncnc2occ(-c3ccc(NC(=O)Nc4cccc(C(F)(F)F)c4)cc3)c12
4. CCn1c(-c2nonc2N)nc2c(N3CCCC3)nccc21
5. CCCN1CCC(Oc2cc(Nc3nc(Nc4cccc(F)c4C(N)=O)c4cc[nH]c4n3)c(OC)cc2Cl)CC1
6. O=C1NC(=O)C(c2ccc(Cl)cc2)=C1Nc1ccc(Cl)c(C(=O)O)c1

1.67
1.42
76.4
3.11
-0.29
2.61
